Where these numbers come from: PubChem BioAssay (NCI)

assay: NCI Yeast Anticancer Drug Screen. Data for the mec2-1 strain (AID 157); details: S. cerevisiae mec2-1 strain, at 50.0 µM
The panel holds about 79,000 compounds, 15% with a hit somewhere; the sample as a whole holds those more often. The source made the active and inactive calls. Rule as the data show it: active = growth inhibition above about 70%; inactive = the rest.
Classes used: active, inactive

{"columns": ["Compound", "Category label"],
 "data": [
  ["Brc1ccc(B2Nc3ccccc3N2)cc1", "inactive"],
  ["Cc1ccnc2c(O)cccc12", "active"],
  ["O=C1C=C(NCCc2cc(Br)c(O)c(Br)c2)C(=O)c2ncccc21", "active"],
  ["O=[N+]([O-])c1ccc2nc(=S)[nH]n2c1", "inactive"],
  ["CCCCOc1ccc2nc(C)cc(N=[N+]=[N-])c2c1", "inactive"],
  ["CC(C)OC(=O)NNc1cccc(Cl)c1", "active"],
  ["COC(=O)C(=O)CC(=O)c1cccc(OC)c1", "inactive"],
  ["O=C(c1ccccc1)[C@H]1Nc2ccc(Cl)cc2[C@H]2OCCC[C@@H]12", "inactive"],
  ["CC(C)(C)c1ccc2c(c1)C(=O)c1ccccc1C2=O", "inactive"],
  ["CC(=O)/C=C/c1cc([N+](=O)[O-])ccc1O", "active"],
  ["O=C1c2ccccc2C(=O)c2c(O)c(NCCNCCO)cc(O)c21", "active"],
  ["[N-]=[N+]=NC1(c2ccccc2)C(=O)Nc2ccccc2C1=O (configuration not stated)", "active"],
  ["C[n+]1c(-c2ccc(/C=N/NC(=O)c3ccc(C(=O)N/N=C/c4ccc(-c5cn6ccccc6[n+]5C)cc4)cc3)cc2)cn2ccccc21", "inactive"],
  ["CCCCCCCCNCCCCCCCC", "active"],
  ["CCO/C=C1\\SC(=S)N(c2ccc(OCC)cc2)C1=O", "inactive"],
  ["c1cc(-c2sc(-c3ccncc3)c(-c3ccncc3)c2-c2ccncc2)ccn1", "inactive"],
  ["COc1ccc(C(C)c2cc3c(cc2OCC(C)=O)OCO3)cc1 (configuration not stated)", "inactive"],
  ["O=C(c1cc(=O)c2ccc(O)cc2o1)c1ccc(Cl)cc1Cl", "active"],
  ["O=C(NO)c1coc2ccccc2c1=O", "active"],
  ["CC1CCN(CCC(=O)c2ccc([N+](=O)[O-])cc2)CC1", "inactive"],
  ["CC1CN(/N=C\\c2ccc([N+](=O)[O-])o2)C(=O)O1 (configuration not stated)", "inactive"],
  ["O=CC1(F)CC1(c1ccccc1)c1ccccc1 (configuration not stated)", "inactive"]
]}

* * *

assay: NCI Yeast Anticancer Drug Screen. Data for the rad50 strain (AID 155);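 also: 0% = growth of vehicle-only cultures of the same strain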; details: S. cerevisiae rad50 strain growth inhibition; at 1.2 µM; hits give high values
About 79,000 compounds went through this panel and 15% of them were active in at least one assay; those are over-represented in the sample as a whole.
Measured growth inhibition, listed per entry.

{"columns": ["Compound", "growth inhibition (%)"],
 "data": [
  ["COc1ccc2nc3cccc([N+](=O)[O-])c3c(NCCNCCN(C)C)c2c1", -4],
  ["CC(=O)N1C=Cc2c(c(C)c3c([nH]c4ccccc43)c2C)C1", 67],
  ["N#CCCC1C(C#N)C2(Cl)CC1(Cl)C(Cl)=C2Cl (stereo not drawn)", -10]
]}

* * *

experiment: NCI Yeast Anticancer Drug Screen. Data for the rad50 strain (AID 155);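 also: 0% = growth of vehicle-only cultures of the same strain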; settings: S. cerevisiae rad50 strain growth inhibition; at 5.0 µM (retest, dose inferred, filed as 0.5); hits give high values
About 79,000 compounds went through this panel and 15% of them were active in at least one assay; those are over-represented in the sample as a whole.

{"columns": ["Molecule", "growth inhibition, %"],
 "data": [
  ["O=C(O)CNC(c1ccccc1)(c1ccccc1)c1ccccc1", 43],
  ["O=C1C(=O)N(c2ccccc2)[C@@]2(c3ccccc3)C(=Nc3ccccc3)OC(c3ccccc3)=C12", 0],
  ["O=S1(=O)CCC2=CC(C(F)(F)F)=CC(C(F)(F)F)=CN21", 38],
  ["O=C(O)c1ccccc1C(=O)OC1CCc2ccccc2C1 (configuration not stated)", -12],
  ["CCCCS(=O)(=O)Nc1ccc(Nc2c3ccccc3nc3ccccc23)c(OC)c1", 86],
  ["CN(C)/C(=N/C(=S)Nc1ccccc1)SCc1ccccc1", -7],
  ["CC(C)OC(=O)NNc1cc(Cl)ccc1Cl", 19],
  ["CN(C)CCCn1c2c3ccccc3ccc2c2oc(=O)c3ccccc3c21", 22],
  ["CSC(=S)N/N=C/c1ccccc1", 38],
  ["OC(Cc1cccc2ccccc12)CN1CCC(c2ccccc2)CC1 (configuration not stated)", 55],
  ["c1ccc2c(c1)N=C1CCCC3CCCC123 (configuration not stated)", -161],
  ["CC1(C)CC(=O)C(C=NC(=S)C(N)=S)=C(O)C1", -26],
  ["Fc1cc(F)c(F)c(S)c1F", -12],
  ["CC(C)Cc1ncc(CCCN=C(N)N)[nH]c1=O", -5],
  ["COc1cccc(C(NC2=NCCC=N2)c2cc3c(cc2O)OCO3)c1O (configuration not stated)", -11],
  ["O=P(C(=S)Nc1c(Cl)cccc1Cl)(c1ccccc1)c1ccccc1", 73],
  ["CCCCCCCCCCCNC=O", 1],
  ["O=[N+]([O-])c1cn[n+]([O-])c2ccccc12", 25],
  ["CN(C)CC1=Nc2cccc3cccc(c23)N1", -17],
  ["O=C(C#Cc1ccccc1)/C=C/c1ccccc1", -136],
  ["N#Cc1nc(Nc2ccc(Cl)cc2)sc1N", 18],
  ["CCOP(=O)(OCC)/C(C#N)=C/c1cccc(Oc2ccccc2)c1", 2]
]}

* * *

assay: NCI Yeast Anticancer Drug Screen. Data for the CLN2oe strain (AID 163);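 also: 0% = growth of vehicle-only control cultures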; settings: S. cerevisiae CLN2oe strain, at 11.0 µM
Compounds without any hit were thinned out: in the full panel of roughly 79,000, 15% have a hit. Activity calls are given as the source filed them. No stated cut-off is given here; in the data, active means growth inhibition above about 70%; inactive means the rest.
Classes used: yes for active, no for inactive

{"columns": ["Molecule", "Category label"],
 "data": [
  ["O=C1/C(=C/c2ccc(Cl)c(Cl)c2)CNC/C1=C\\c1ccc(Cl)c(Cl)c1", "no"],
  ["CC1=C(C)C(=O)C2=C(OCCO2)C1=O", "no"],
  ["N#CCC(=O)N/N=C(\\c1ccccc1)C(c1ccccc1)C1(O)C(=O)Nc2c(Cl)ccc(Cl)c21 (stereo unspecified)", "no"],
  ["NCCCSc1ccccc1", "no"],
  ["CCOC(=O)/C(=C\\c1ccc(F)cc1)C(C)=O", "no"],
  ["N#CCCC1C(C#N)C2(Cl)CC1(Cl)C(Cl)=C2Cl (stereo unspecified)", "no"],
  ["CCOc1ccc2nc3ccccc3c(N)c2c1", "no"],
  ["O=C1C=C(NCCc2cc(Br)c(O)c(Br)c2)C(=O)c2ncccc21", "no"],
  ["CCN1CCC(O)(c2ccc(Oc3ccc(C)cc3)cc2)C(C(=O)c2ccc(Oc3ccc(C)cc3)cc2)C1 (stereo unspecified)", "yes"],
  ["CCO/C=C1\\SC(=S)N(c2ccc(OCC)cc2)C1=O", "no"],
  ["CCCCCCCSCC1C(=O)C23C(O)C1CCC2C12COC3(O)C(O)C1C(C)(C)CCC2O (stereo unspecified)", "yes"],
  ["CC1(C)OC(=O)C(=Cc2ccc([N+](=O)[O-])s2)C(=O)O1", "no"],
  ["O=[N+]([O-])c1ccc(C(c2c[nH]c3ccccc23)c2c[nH]c3ccccc23)cc1", "yes"],
  ["CCC(/C=C/c1ccccc1)=N\\Nc1ccc(Cl)cc1", "no"],
  ["Nc1cc(Cl)ccc1Nc1ccccc1", "no"],
  ["O=C(NC(N1CCN(c2cc3c(cc2F)c(=O)c(C(=O)O)cn3C2CC2)CC1)(C(F)(F)F)C(F)(F)F)c1ccccc1", "no"],
  ["CC(C)(CN1CCCCC1)C(=O)/C=C/c1c(Cl)cccc1Cl", "yes"],
  ["Nc1ccc(/C=C/c2ccc3cccnc3c2)cc1", "no"],
  ["O=C(NNc1ccccc1)C(CCCCNS(=O)(=O)Cc1ccccc1)NS(=O)(=O)Cc1ccccc1 (stereo unspecified)", "no"],
  ["CCCCCCCCCCCCCCCCCCN(C)C(COC)COP(=O)([O-])OCC[N+](C)(C)C (stereo unspecified)", "yes"],
  ["C=COC(=O)N[C@H]1CCc2cc(OC)c(OC)c(OC)c2-c2ccc(SC)c(=O)cc21", "no"],
  ["O=C1CCC(Cc2ccccc2)CN1 (stereo unspecified)", "no"],
  ["CCCC/C=C1\\CCC(CN2CCCC2)C1=O (stereo unspecified)", "no"],
  ["Cc1ccc(NC(Nc2ccc(C)cc2C)=C(C(Cl)=C(Cl)Cl)[N+](=O)[O-])c(C)c1", "no"],
  ["COC(=O)C(Cl)(Cl)N=Nc1c(Cl)cc(Cl)c(C)c1Cl", "yes"],
  ["OC(Cc1cccc2ccccc12)CN1CCC(c2ccccc2)CC1 (stereo unspecified)", "yes"],
  ["CC1=COC2=C(C)C(=O)C(=O)c3c(C)ccc1c32", "no"],
  ["O=C1c2ccccc2-c2cc3ccccc3c(=O)n21", "no"],
  ["O=C(/N=N/C(=O)Oc1ccccc1)Oc1ccccc1", "no"],
  ["CCN1CCC(O)(c2ccc(Oc3ccc(Cl)cc3)cc2)C(C(=O)c2ccc(Oc3ccc(Cl)cc3)cc2)C1 (stereo unspecified)", "no"],
  ["CC(C)(Br)C(=O)/C=C/c1ccccc1", "no"]
]}
